Tested on: CCRF-CEM leukemia
ASSAY COMMENT: NCI-60 one-dose screen, 48 h
TEST SETTINGS: 10 µM unless noted
Experimental: Growth inhibition of the CCRF-CEM human tumor cell line is measured as a screen for anti-cancer activity. Cells are grown in 96 well plates and exposed to the test compound for 48 hours. Compounds are tested at a single concentration, which is 10^-5 M for most compounds. The reported endpoint is percent growth (GI% or GIPRCNT), where numbers from 0 - 100% represent growth inhibition, and numbers from -100% - 0 represent cell death. For example, a value of 40 represents 60% growth inhibition. […]
About 83,000 compounds went through this panel and 20% of them were active in at least one assay; those are over-represented in the sample as a whole. The source made the active and inactive calls. How the source made its calls: active means growth percent below 10; inactive means the rest.
Outcome codes: Y for active, N for inactive

# COMPOUND, CLASS LABEL
records = [
    ("COc1cc2c(cc1OCc1ccccc1)C(CC(C)C)=[N+](C)CC2", "N"),
    ("COc1cc([N+](=O)[O-])c2nc(C)ccc2c1[N+](=O)[O-]", "N"),
    ("CCOP1(=O)CC(C)=C(Cl)C(P(=O)(OCC)OCC)C1 (centres undefined)", "Y"),
    ("CN(C)C(=O)Oc1ccc(Br)cc1", "N"),
]

* * *

Tested on: ACHN renal
ASSAY COMMENT: NCI-60 one-dose screen, 48 h (100 = growth as untreated, 0 = no growth, -100 = all killed)
TEST SETTINGS: 10 µM unless noted
About 83,000 compounds went through this panel and 20% of them were active in at least one assay; those are over-represented in the sample as a whole.
Overview of recorded growth for various compounds

# COMPOUND, growth (%)
measured = [
    ("COC(=O)C12CC(NC(=O)c3csc([C@@H](C[C@H](C(C)C)N(C)C(=O)[C@@H](NC(=O)[C@H]4CCCCN4C)C4CC4)OC(C)=O)n3)(C1)C2", 33.6),
    ("COc1cc(NC(C)CCCNC2CN3CCC2CC3)c2ncccc2c1 (stereo not drawn)", 84.9),
    ("Cc1c2cc(Cl)c3ccccc3c2c[n+]2ccccc12", 92.2),
    ("C[n+]1c(/C=C/c2ccc(N(CCCl)CCCl)cc2)sc2ccccc21", 78.8),
    ("COC(=O)CCc1c[nH]c2ccc(N(CCCl)CCCl)cc12", 12.6),
    ("C=C1C[C@](OC)([C@H](O)C(=O)N[C@@H](OC)[C@@H]2C[C@@H](O)C(C)(C)[C@@H](C[C@@H](COC)OC)O2)O[C@H](C)[C@@H]1C", -84.6),
    ("CCOC(=O)CCC(NC(=O)C(Cc1ccc(N(CCCl)CCCl)cc1)NC=O)C(=O)OCC (stereo not drawn)", -33.9),
    ("CCOC(=O)N[C@H]1CCc2c(Br)c(OC)c(OC)c(OC)c2-c2ccc(SC)c(=O)cc21", 24.4),
    ("CC(=O)Oc1ccccc1C(=O)NCCC[Se]C#N", 6.63),
    ("O=C1CNC(c2ccccc2)c2cc(Cl)ccc2N1 (stereo not drawn)", 109),
    ("C=CC[PH+](c1ccccc1)c1ccccc1.C=CC[PH+](c1ccccc1)c1ccccc1.[Cl][Pt][Cl]", 35.9),
    ("COC(=O)[C@@]1(O)C[C@H]2O[C@]1(C)n1c3ccccc3c3c4c(c5c6ccccc6n2c5c31)C(=O)NC4", -27.3),
    ("N#C[Se]CCN1C(=O)c2ccccc2C1=O", 63.2),
    ("COc1cc(C=Nc2cc(Cl)cc(Cl)c2)ccc1N(CCCl)CCCl", 63),
    ("O=C(CC1(O)C(=O)N(Cc2ccccc2)c2ccc(Br)cc21)c1ccc(C(=O)NCC2CCC3(CC2)OOC2(CCCCC2)OO3)cc1 (stereo not drawn)", -83),
    ("CCn1c2ccccc2c2cc(C(=O)c3cccc4c3CCCN4)ccc21", 102),
    ("CCCCNC(c1ccc(Cl)cc1)C(O)c1ccc(Cl)cc1 (stereo not drawn)", 35.2),
    ("C[C@]12CC[C@H]3[C@@H](CC[C@]4(O)C[C@@H](O[C@@H]5O[C@H](CO)[C@@H](O[C@@H]6OC[C@@H](O)[C@H](O)[C@H]6O)[C@H](O)[C@H]5O)CC[C@]34C=O)[C@@]1(O)CC[C@@H]2C1=CC(=O)OC1", -34.3),
]

* * *

System: HT29 colon
ASSAY COMMENT: NCI-60 one-dose screen, 48 h
TEST SETTINGS: 10 µM unless noted
Compounds without any hit were thinned out: in the full panel of roughly 83,000, 20% have a hit. The source made the active and inactive calls. The calls were made as follows: active = growth percent below 10; inactive = the rest.
Outcome codes: active, inactive

# COMPOUND, CLASS LABEL
records = [
    ("Fc1ccc(N2COOC3(OOC2)C2CC4CC(C2)CC3C4)cc1", "inactive"),
    ("COC(=O)[C@@H](C)C[C@H](Cc1cn(C)c2ccccc12)NC(=O)c1csc([C@@H](C[C@H](C(C)C)N(C)C(=O)[C@@H](NC(=O)[C@H]2CCCCN2C)C(C)C)OC(C)=O)n1", "active"),
    ("COc1ccc(/C=C\\c2cc(OC)c(OC)c(OC)c2)cc1NS(=O)(=O)c1ccc(Cl)cc1", "inactive"),
    ("CC(=O)OC1CCC2C3CCC4=C/C(=N/OC(=O)c5ccc(N(CCCl)CCCl)cc5)CCC4(C)C3CC(C)C12 (stereo not given)", "inactive"),
    ("COc1ccc(O)c(CNC(=O)CN2CCCC2=O)c1", "inactive"),
]

* * *

Test system: NCI-H460 lung
ASSAY COMMENT: NCI-60 one-dose screen, 48 h (100 = growth as untreated, 0 = no growth, -100 = all killed)
TEST SETTINGS: 10 µM unless noted
The panel holds about 83,000 compounds, 20% with a hit somewhere; the sample as a whole holds those more often.
Output label 1 for growth not less than 90%; output label 0 otherwise.

# COMPOUND, CLASS LABEL
measured = [
    ("COC(=O)[C@@H](C)C[C@H](Cc1ccccc1)NC(=O)c1csc([C@@H](C[C@H](C(C)C)N(C)C(=O)[C@H](C)NC(=O)[C@H]2CCCN2C)OC(C)=O)n1", "label 0"),
    ("Cc1ccc(Nc2nc3c(s2)C2=CC[C@@H]4[C@H](CC[C@]5(C)C(=O)CC[C@@H]45)[C@@]2(C)CC3)cc1", "label 0"),
    ("Clc1cccc(NCOOC2(OOCNc3cccc(Cl)c3)CCCCCC2)c1", "label 1"),
    ("COC(=O)C1CCC(NC(=O)c2csc([C@@H](C[C@H](C(C)C)N(C)C(=O)[C@@H](NC(=O)[C@H]3CCCCN3C)C(C)C)OC(C)=O)n2)CC1 (stereo partly specified)", "label 0"),
    ("COC(=O)[C@@H](C)C[C@H](Cc1ccccc1)NC(=O)c1nc([C@@H](C[C@H](C(C)C)N(C)C(=O)[C@@H](NC(=O)[C@H]2C[C@H](O)CCN2C)C(C)C)OC(C)=O)sc1C(C)C", "label 0"),
    ("CC12CCC3C(C=CC4=C(N)C(=O)CCC43C)C1CCC2=O (stereo unspecified)", "label 0"),
    ("CCOC(=O)N1CC1", "label 1"),
    ("O=C1CCC2(O)[C@@H]3Cc4ccc(O)c5c4[C@]2(CCN3Cc2ccoc2)C1O5 (stereo partly specified)", "label 1"),
    ("CC[C@H](C)[C@H](NC(=O)c1ccccn1)C(=O)N(C)[C@H](C[C@@H](OC(C)=O)c1nc(C(=O)N[C@@H](Cc2ccccc2)C[C@H](C)C(=O)OC)cs1)C(C)C", "label 0"),
    ("CCC1CN1CCCCN1CC1CC (stereo unspecified)", "label 1"),
    ("Cc1cc(N(CCCl)CCCl)ccc1C=Nc1ccc(-c2csc(Cc3ccccc3)n2)cc1", "label 0"),
    ("N#CCCNc1ccccc1", "label 1"),
    ("COC(=O)[C@@H](NC(=O)c1cn(CCC2CCCCC2)c2ccccc12)C(C)(C)C", "label 0"),
    ("Cc1c(C)c([N+](=O)[O-])c(C)c(C)c1[N+](=O)[O-]", "label 1"),
    ("ClCCN(CCCl)c1ccc(/C=N/Nc2ncnc3nc[nH]c23)cc1", "label 0"),
]

* * *

Overview of recorded growth for various compounds
System: MALME-3M melanoma
ASSAY COMMENT: NCI-60 one-dose screen, 48 h (100 = growth as untreated, 0 = no growth, -100 = all killed)
TEST SETTINGS: 10 µM unless noted
This is part of a sample that, as a whole, favours compounds with a hit. Of some 83,000 tested, about 20% had one in any assay. The source made the active and inactive calls. How the source made its calls: active means growth percent below 10; inactive means the rest.

# COMPOUND, growth
data = [
    ("C[C@]12C[C@@H](CO)[C@H](O)C[C@@H]1CC[C@@H]1[C@@H]2CC[C@]2(C)[C@@H](O)CC[C@@H]12", "90.6% (inactive)"),
    ("CCCCCCCCCCCCCCCCCC1OC[C@@H](COC(=O)O[C@@H](C(=O)O[C@H]2C[C@@]3(O)[C@@H](OC(=O)c4ccccc4)[C@@H]4[C@]5(OC(C)=O)CO[C@@H]5C[C@H](O)[C@@]4(C)C(=O)[C@H](OC(C)=O)C(=C2C)C3(C)C)[C@@H](NC(=O)c2ccccc2)c2ccccc2)O1 (some centres undefined)", "50.5% (inactive)"),
    ("CC(CC1CCCCC1)NCc1ccccc1 (centres undefined)", "88.9% (inactive)"),
    ("COC(=O)[C@@H](C)C[C@H](Cc1ccccc1)NC(=O)c1csc([C@@H](C[C@H](C(C)C)N(C)C(=O)[C@@H](NC(=O)[C@H]2CCCCN2C)C(C)C)OC(C)=O)n1", "51.5% (inactive)"),
]
